Would you kindly list Ex/Em1, excitation for each of these molecules?
assay: Steady state fluorescence spectra and quantum yield; type: physicochemical; settings: in complex with biliverdin, UV/blue excitation
Answers are plain numbers, in nm.

Would you please look over these solved cases?
[[record]]
molecule = "SFP-L135E: monomeric SFP variant L135E, SEQ ID NO:3 (protein) FIKPGRCPKPAVQEDFDAARYLGVWYDIQRLPNKFQKGECATATYSLSPGVGFSVFNRERLANGTIKSVIGSAIAEDPCEPAKLQFFHENAAPVPYWVLSTDYDNYALVYSCINEGASHAAYASIVSRQPTLPEETIKKLQGTMSSFGVGVDTLLTTNQDAAYCSAMNQ"
recorded_metric = "Ex/Em1, excitation"
endpoint_result = 380

[[record]]
molecule = "Wild-type SFP: Sandercyanin fluorescent protein from walleye Sander vitreus mucus, biliverdin-binding lipocalin tetramer; SEQ ID NO:1 (recombinant SEQ ID NO:31) (protein, listed as Sander vitreus, biliverdin chromophore) MNAIQVISLTLLSVLAAKAMFIKPGRCPKPAVQEDFDAARYLGVWYDIQRLPNKFQKGECATATYSLSPGVGFSVFNRERLANGTIKSVIGSAIAEDPCEPAKLQFFHENAAPVPYWVLSTDYDNYALVYSCINLGASHAAYASIVSRQPTLPEETIKKLQGTMSSFGVGVDTLLTTNQDAAYCSAMAQ"
recorded_metric = "Ex/Em1, excitation"
endpoint_result = 375

[[record]]
molecule = "SFP-V71E: monomeric SFP variant V71E, SEQ ID NO:2 (protein) FIKPGRCPKPAVQEDFDAARYLGVWYDIQRLPNKFQKGECATATYSLSPGEGFSVFNRERLANGTIKSVIGSAIAEDPCEPAKLQFFHENAAPVPYWVLSTDYDNYALVYSCINLGASHAAYASIVSRQPTLPEETIKKLQGTMSSFGVGVDTLLTTNQDAAYCSAMNQ"
recorded_metric = "Ex/Em1, excitation"
endpoint_result = 380


Problem: Quick one: Ex/Em1, excitation of SFP-A137E: monomeric SFP variant A137E, SEQ ID NO:4 (protein) FIKPGRCPKPAVQEDFDAARYLGVWYDIQRLPNKFQKGECATATYSLSPGVGFSVFNRERLANGTIKSVIGSAIAEDPCEPAKLQFFHENAAPVPYWVLSTDYDNYALVYSCINLGESHAAYASIVSRQPTLPEETIKKLQGTMSSFGVGVDTLLTTNQDAAYCSAMNQ ?
Result: 380
